test: in vivo; conditions: rat, plasma, intravenous, 20 nmol/kg
measuredParameter: C0
Please answer using a numeric value trailed by its unit.

State the recorded C0 for this entry: `CCCCCC(=O)N[C@H]1CSCc2cc(CSCCNC(=O)CN3CCN(CC(=O)O)CCN(CC(=O)O)CCN(CC(=O)O)CC3)cc(c2)CSC[C@@H](C(=O)O)NC(=O)[C@H](Cc2ccccc2)NC(=O)[C@H](CCC(N)=O)NC(=O)[C@H]([C@@H](C)O)NC(=O)[C@@H]2CCCN2C(=O)[C@@H]2CCCN2C1=O`
111 nM

* * *

molecular target: Human recombinant FAP (Homo sapiens, UniProt Q12884); test: Surface plasmon resonance (Biacore) assay; assay type: binding
Sequence (Q12884 whole entry): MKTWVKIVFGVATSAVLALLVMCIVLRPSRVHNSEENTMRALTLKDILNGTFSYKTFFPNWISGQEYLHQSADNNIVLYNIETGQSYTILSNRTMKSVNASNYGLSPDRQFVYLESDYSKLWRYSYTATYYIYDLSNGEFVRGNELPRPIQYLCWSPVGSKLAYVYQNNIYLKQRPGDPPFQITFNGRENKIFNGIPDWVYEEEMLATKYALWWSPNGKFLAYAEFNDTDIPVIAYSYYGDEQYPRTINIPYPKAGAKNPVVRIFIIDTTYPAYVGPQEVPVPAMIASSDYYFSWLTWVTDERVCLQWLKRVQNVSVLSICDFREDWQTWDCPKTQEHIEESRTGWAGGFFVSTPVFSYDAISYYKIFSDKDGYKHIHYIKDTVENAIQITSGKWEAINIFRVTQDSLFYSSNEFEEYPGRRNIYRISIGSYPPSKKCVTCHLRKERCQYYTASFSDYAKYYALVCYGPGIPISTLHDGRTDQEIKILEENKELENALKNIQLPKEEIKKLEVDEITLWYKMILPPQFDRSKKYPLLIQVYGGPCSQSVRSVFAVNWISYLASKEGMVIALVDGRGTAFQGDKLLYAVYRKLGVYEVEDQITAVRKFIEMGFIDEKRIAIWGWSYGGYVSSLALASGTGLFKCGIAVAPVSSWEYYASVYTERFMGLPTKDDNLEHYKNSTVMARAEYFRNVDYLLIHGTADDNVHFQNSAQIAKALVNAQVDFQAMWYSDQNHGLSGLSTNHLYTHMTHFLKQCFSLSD
Numbered stars: 1 amine (or outer) side, 2 acyl side, 3 side chain; on linkers, the order of the positions; unused ones are H or OH. Bridge positions count the residues as written; N and C are the ends. Square brackets hold non-standard residues; d marks the D form. Peptide text beside a SMILES is read from it. * marks the point of attachment. X7 = O=C(CN1CCN2CCN3CCN(CC1)CC(=O)[O][In]([O]C(=O)C2)[O]C(=O)C3)NCCSCc1cc(C[*:1])cc(C[*:2])c1; Hexanoyl = CCCCCC(=O)*; Sar = CNCC(=O)O
measuredParameter: Kd

State the recorded Kd for this entry: CCCC[C@H](NC(=O)CCC(=O)NCCCOCCOCCOCCCNC(=O)CN1CCN(CC(=O)O)CCN(CC(=O)O)CCN(CC(=O)O)CC1)C(=O)N[C@H]1CSCc2cccc(c2)CSC[C@@H](C(=O)NCCC(=O)O)NC(=O)[C@H](Cc2ccccc2)NC(=O)[C@H](CCC(N)=O)NC(=O)[C@H]([C@@H](C)O)NC(=O)[C@@H]2CCCN2C(=O)[C@@H]2CCCN2C1=O [3BP-3398]
< 10 nM

State the recorded Kd for this entry: CCCCCC(=O)N[C@H]1CSCc2cc(CSCCNC(=O)CN3CCN4CCN5CCN(CC3)CC(=O)[O][In]([O]C(=O)C4)[O]C(=O)C5)cc(c2)CSC[C@@H](C(=O)O)NC(=O)[C@H](Cc2ccccc2)NC(=O)[C@H](CCC(N)=O)NC(=O)[C@H]([C@@H](C)O)NC(=O)[C@@H]2CCCN2C(=O)CN(C)C1=O [3BP-3716] (Hexanoyl-C[Sar]PTQFC-OH; linker 1-7 via X7)
< 10 nM

State the recorded Kd for this entry: CCCCCC(=O)N[C@H]1CSCc2cc(CSCCNC(=O)CN3CCN(CC(=O)O)CCN(CC(=O)O)CCN(CC(=O)O)CC3)cc(c2)CSC[C@@H](C(=O)N(C)CC(=O)O)NC(=O)[C@H](Cc2ccccc2)NC(=O)[C@H](CCC(N)=O)NC(=O)[C@H]([C@@H](C)O)NC(=O)[C@@H]2CCCN2C(=O)[C@@H]2CCCN2C1 [3BP-3659]
< 10 nM

* * *

The following molecules are listed with their measured remaining at 24 h, 9.8 µM values.
assay: Plasma stability assay, human plasma; type: in vitro ADME; settings: 24 h incubation, 37° C., read-out: % intact compound remaining after incubation, Human plasma
Numbered stars: 1 amine (or outer) side, 2 acyl side, 3 side chain; on linkers, the order of the positions; unused ones are H or OH. Bridge positions count the residues as written; N and C are the ends. Peptide text beside a SMILES is read from it. * marks the point of attachment. X4 = O=C1CN2CCN3CCN(CC(=O)N4CCN(Cc5cc(C[*:1])cc(C[*:2])c5)CC4)CCN(CC2)CC(=O)[O][In]([O]1)[O]C(=O)C3; X1 = O=C(O)CN1CCN(CC(=O)O)CCN(CC(=O)N2CCN(Cc3cc(C[*:1])cc(C[*:2])c3)CC2)CCN(CC(=O)O)CC1; Hexanoyl = CCCCCC(=O)*
All answers are understood in %, so give the number only.

For orientation, consider the following solved cases.
molecule="CCCCCC(=O)N[C@H]1CSCc2cccc(c2)CSC[C@@H](C(=O)N[C@@H](CCCCNC(=O)CN2CCN(CC(=O)O)CCN(CC(=O)O)CCN(CC(=O)O)CC2)CC(=O)O)NC(=O)[C@H](Cc2ccccc2)NC(=O)[C@H](CCC(N)=O)NC(=O)[C@H]([C@@H](C)O)NC(=O)[C@@H]2CCCN2C(=O)[C@@H]2CCCN2C1=O [3BP-3397]" measuredparameter="remaining at 24 h, 9.8 µM" measurednumber=100
molecule="CCCCCC(=O)N[C@H]1CSCc2cc(cc(CN3CCN(C(=O)CN4CCN(CC(=O)O)CCN(CC(=O)O)CCN(CC(=O)O)CC4)CC3)c2)CSC[C@@H](C(=O)N[C@@H](CC(=O)O)C(N)=O)NC(=O)[C@H](Cc2ccccc2)NC(=O)[C@H](CCC(N)=O)NC(=O)[C@H]([C@@H](C)O)NC(=O)[C@@H]2CCCN2C(=O)[C@@H]2CCCN2C1=O [3BP-3407] (Hexanoyl-CPPTQFCD-NH2; linker 1-7 via X1)" measuredparameter="remaining at 24 h, 9.8 µM" measurednumber=100
molecule="CCCCCC(=O)N[C@H]1CSCc2cc(CSCCNC(=O)CN3CCN(CC(=O)O)CCN(CC(=O)O)CCN(CC(=O)O)CC3)cc(c2)CSC[C@@H](C(=O)O)NC(=O)[C@H](Cc2ccccc2)NC(=O)[C@H](CCC(N)=O)NC(=O)[C@H]([C@@H](C)O)NC(=O)[C@@H]2CCCN2C(=O)[C@@H]2CCCN2C1=O [3BP-3554]" measuredparameter="remaining at 24 h, 9.8 µM" measurednumber=100

State the recorded remaining at 24 h, 9.8 µM for this entry: CCCCCC(=O)N[C@H]1CSCc2cc(cc(CN3CCN(C(=O)CN4CCN5CCN6CCN(CC4)CC(=O)[O][In]([O]C(=O)C6)[O]C(=O)C5)CC3)c2)CSC[C@@H](C(=O)N[C@@H](CC(=O)O)C(N)=O)NC(=O)[C@H](Cc2ccccc2)NC(=O)[C@H](CCC(N)=O)NC(=O)[C@H]([C@@H](C)O)NC(=O)[C@@H]2CCCN2C(=O)[C@@H]2CCCN2C1=O [3BP-3590] (Hexanoyl-CPPTQFCD-NH2; linker 1-7 via X4)
94

State the recorded remaining at 24 h, 9.8 µM for this entry: CCCCCC(=O)N[C@H]1CSCc2cc(CSCCNC(=O)CN3CCN4CCN5CCN(CC3)CC(=O)[O][Lu]([O]C(=O)C4)[O]C(=O)C5)cc(c2)CSC[C@@H](C(=O)O)NC(=O)[C@H](Cc2ccccc2)NC(=O)[C@H](CCC(N)=O)NC(=O)[C@H]([C@@H](C)O)NC(=O)[C@@H]2CCCN2C(=O)[C@@H]2CCCN2C1 [3BP-3624]
100

State the recorded remaining at 24 h, 9.8 µM for this entry: CCCC[C@H](NC(=O)CCC(=O)NCCCOCCOCCOCCCNC(=O)CN1CCN(CC(=O)O)CCN(CC(=O)O)CCN(CC(=O)O)CC1)C(=O)N[C@H]1CSCc2cccc(c2)CSC[C@@H](C(=O)NCCC(=O)O)NC(=O)[C@H](Cc2ccccc2)NC(=O)[C@H](CCC(N)=O)NC(=O)[C@H]([C@@H](C)O)NC(=O)[C@@H]2CCCN2C(=O)[C@@H]2CCCN2C1=O [3BP-3398]
99

* * *

test: in vivo; details: rat, plasma, intravenous, 2 nmol/kg
measuredParameter: C0 (nM)
All answers are understood in nM, so give the number only.

State the recorded C0 for this entry: `CCCCCC(=O)N[C@H]1CSCc2cc(CSCCNC(=O)CN3CCN(CC(=O)O)CCN(CC(=O)O)CCN(CC(=O)O)CC3)cc(c2)CSC[C@@H](C(=O)O)NC(=O)[C@H](Cc2ccccc2)NC(=O)[C@H](CCC(N)=O)NC(=O)[C@H]([C@@H](C)O)NC(=O)[C@@H]2CCCN2C(=O)[C@@H]2CCCN2C1=O`
10.3

* * *

biological target: Human recombinant FAP (Homo sapiens, UniProt Q12884); experiment: FRET-based FAP protease activity assay; format: biochemical; set-up: purchased R&D systems 3715-SE; conditions: pIC50 Category (Activity), FRET substrate, 37° C.
Numbered stars: 1 amine (or outer) side, 2 acyl side, 3 side chain; on linkers, the order of the positions; unused ones are H or OH. Bridge positions count the residues as written; N and C are the ends. Square brackets hold non-standard residues; d marks the D form. Peptide text beside a SMILES is read from it. * marks the point of attachment. mXylylene = c1cc(C[*:1])cc(C[*:2])c1; X51 = O=C(CN1CCC(N[*:1])CC1)[*:2]; X18 = NCCNCC(CNCCN)C(=O)*; Nle = CCCC[C@H](N)C(=O)O
The following molecules are listed with their measured IC50 values.

For orientation, consider the following solved cases.
molecule="CCCC[C@H](NC(=O)CN1CCC(NC(=O)C(CNCCN)CNCCN)CC1)C(=O)N[C@H]1CSCc2cccc(c2)CSC[C@@H](C(=O)O)NC(=O)[C@H](Cc2ccccc2)NC(=O)[C@H](CCC(=O)O)NC(=O)[C@H]([C@@H](C)O)NC(=O)[C@@H]2CCCN2C(=O)[C@@H]2CCCN2C1=O [3BP-4220] (X18-[X51][Nle]CPPTEFC-OH; linker 3-9 via mXylylene)" result="> 1 µM"
molecule=CCCCCC(=O)N[C@H]1CSCc2cc(CSCCNC(=O)CN3CCN(CC(=O)O)CCN(CC(=O)O)CCN(CC(=O)O)CC3)cc(c2)CSC[C@@H](C(=O)O)NC(=O)[C@H](Cc2cccnc2)NC(=O)[C@H](CCC(N)=O)NC(=O)[C@H]([C@@H](C)O)NC(=O)[C@@H]2CCCN2C(=O)[C@@H]2CCCN2C1 result="< 0.01 µM"

Consider the additional molecule presented here.
Form: Entry = `CCCCCC(=O)N[C@H]1CSCc2cc(CSCCNC(=O)CN3CCN4CCN(CC(=O)O)CCN(CC3)CC(=O)[O][Zn][O]C(=O)C4)cc(c2)CSC[C@@H](C(=O)O)NC(=O)[C@H](Cc2ccccc2)NC(=O)[C@H](CCC(N)=O)NC(=O)[C@H]([C@@H](C)O)NC(=O)[C@@H]2CCCN2C(=O)[C@@H]2CCCN2C1` | System = Human recombinant FAP (Homo sapiens, UniProt Q12884) | IC50 = ____
< 0.01 µM
